biological target: KpUGM (Klebsiella pneumoniae); construct: His-tag; made in house; host or cells: E. coli BL21(DE3); type: biochemical; conditions: Lineweaver-Burk analysis, competitive inhibition
Sequence (Q48485 24-384): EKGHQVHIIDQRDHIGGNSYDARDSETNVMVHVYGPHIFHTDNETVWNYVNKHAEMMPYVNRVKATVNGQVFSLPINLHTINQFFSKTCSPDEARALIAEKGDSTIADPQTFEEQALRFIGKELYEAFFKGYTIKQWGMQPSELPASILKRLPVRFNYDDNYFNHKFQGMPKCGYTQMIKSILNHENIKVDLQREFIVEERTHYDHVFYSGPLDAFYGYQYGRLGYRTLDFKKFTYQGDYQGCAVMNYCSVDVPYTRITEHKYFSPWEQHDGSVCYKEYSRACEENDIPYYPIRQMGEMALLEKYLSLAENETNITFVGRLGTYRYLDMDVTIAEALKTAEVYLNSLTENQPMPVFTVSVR
measured.metric: Ki (µM)
Reply with just the number (in µM).

{"compound": "O=C(O)CC1Sc2nnc(-c3ccco3)n2N=C1c1ccccc1 (stereo not drawn) [Compound 6]", "Ki / µM": 78}
{"compound": "O=C(O)CC1Sc2nnc(-c3cccs3)n2N=C1c1ccc(Cl)cc1 (stereo not drawn) [Compound 22]", "Ki / µM": 7}

Query: Request the reported Ki associated with O=C(O)CC1Sc2nnc(Cc3ccc(Br)cc3)n2N=C1c1ccc(Cl)cc1 (stereo not drawn) [Compound 30]
Response: 1.1

###

biological target: Malate Dehydrogenase (MDH) (Thermus thermophilus); test: aggregation counter screen, malate dehydrogenase inhibition; details: full dose response curve, no detergent
Sequence (P10584 whole entry): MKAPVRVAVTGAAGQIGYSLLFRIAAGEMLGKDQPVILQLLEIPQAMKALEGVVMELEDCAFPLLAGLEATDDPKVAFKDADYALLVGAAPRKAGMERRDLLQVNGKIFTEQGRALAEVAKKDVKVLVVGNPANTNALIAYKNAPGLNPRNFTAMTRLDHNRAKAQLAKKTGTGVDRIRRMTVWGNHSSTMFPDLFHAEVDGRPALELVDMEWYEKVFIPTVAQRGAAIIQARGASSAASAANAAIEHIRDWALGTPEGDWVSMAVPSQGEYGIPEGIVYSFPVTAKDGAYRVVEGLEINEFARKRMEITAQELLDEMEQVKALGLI
measured.metric: pIC50
Friendly reminder that pIC50 comes from taking -log10 of the concentration in mol/L.

Query: Request the reported pIC50 associated with O=C(O)CC1Sc2nnc(Cc3ccc(Br)cc3)n2N=C1c1ccc(Cl)cc1 (stereo not shown) [Compound 30]
Response: 4.25
